- assay-comment: thallium influx changes without GIRK channels – cell-based, HEK-293 rmGlu8, no GIRK, thallium flux, counter-screen for GIRK activator project, confirmation (AID 623868)
- condition-description: thallium flux fluorescence, at 10 µM, actives lie on both sides, codes: 1 enhancer, -1 blocker, 0 none, thallium stimulus containing EC20 glutamate
The whole screen tested about 2,100 compounds, of which about 760 (36%) were called active.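 The calls were made as follows: active = thallium-flux fluorescence traces judged by eye to show enhanced or reduced glutamate response, manual score 1 or -1, so both directions (some results past the limit were not filed as active); inactive = the rest, including fluorescent or raised-baseline compounds.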 These entries were drawn from the full list.
Respond using exactly one of the listed classes: True (active), False (inactive)

Would you please look over these solved cases?
- CON(c1nc(Cl)nc(N(C)C)n1)S(=O)(=O)c1ccccc1Cl: False
- C=CCn1c(SCC(=O)Nc2sc(C)c(C)c2C(=O)OCC)nnc1-c1sc(N)nc1C: True
- CC(C)N(C(=O)CSc1ncnc2sc(-c3ccccc3)cc12)C(C)C: True
- CCOC(=O)c1c(NS(=O)(=O)c2ccc(Br)cc2)sc2c1CCC2: True

Here is another compound to look at.
Asked: Call for entry CC(C)C(C)(C#N)NC(=O)CSc1ncnc2sc(-c3ccccc3)cc12 (stereo not given) :
Given back: False

From: PubChem BioAssay AID623868
